# MEASURED_TARGET: T1, BCMA-Fc fusion protein (Acrobiosystems, catalogue no. BC7-H5254) (human, UniProt Q02223 1-54)
# T1 construct: Bought fusion protein; Used as coated antigen in ELISA; also called BCMA抗原; BCMA-Fc抗原; not shown: human Fc
# T1 sequence (looked up): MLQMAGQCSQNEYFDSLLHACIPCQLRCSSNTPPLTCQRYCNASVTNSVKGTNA
# MEASUREMENT_PROTOCOL: ELISA; affinity estimated from the EC50 ratio to J6 (J6 taken as 0.2 nM)
ASSAY_READOUT: Kd

What Kd value was documented for this binder, B10.3 (affinity-matured mutant of B10) (scFv, also called 突变体B10.3) scFv: QVQLQQSGAEVKKPGSSVKVSCKASGGTFSKSAIQWVRQAPGQGLEWMGGVIPIFGTANYAQKFQGRVTITADESTSTAYMELSSLRSEDTAVYYCARGWYLDLWGRGTLVTVSSGGSSRSSSSGGGGSGGGGLPVLTQPPSASGTPGQRVTISCSGSSNNIGGYSVNWYQQFPGTAPKLLIYRNNQRPSGVPDRFSGSKSGASASLAISGLQSEDEADYYCAAWDDSVIGWLFGTGTQLTVL ? 0.26 nM
